- System: Staphylococcus aureus
- procedure-summary: Antimicrobial activity against Methicillin susceptible Staphylococcus aureus 208/7 by twofold dilution technique
- Format: functional
property-measured: log10(MIC) (log10 of the value in µg/mL)
// do not treat as linear: log10 of MIC, unit µg/mL

compound	log10(MIC)
COc1ccc2[nH]cc(CCN/C=C3\C(=O)C(O)=C(C(C)C)c4cc(C)c(-c5c(C)cc6c(c5O)/C(=C/NCCc5c[nH]c7ccc(OC)cc57)C(=O)C(O)=C6C(C)C)c(O)c43)c2c1	2.00
CCCCOCCOCCN/C=C1\C(=O)C(O)=C(C(C)C)c2cc(C)c(-c3c(C)cc4c(c3O)/C(=C/NCCOCCOCCCC)C(=O)C(O)=C4C(C)C)c(O)c21	2.00
Cc1cc2c(c(O)c1-c1c(C)cc3c(c1O)/C(=C/NCCc1cccs1)C(=O)C(O)=C3C(C)C)/C(=C/NCCc1cccs1)C(=O)C(O)=C2C(C)C	1.70

# lookup: log10(MIC) of COCCOCCOCCN/N=C/c1c(O)c(O)c(C(C)C)c2cc(C)c(-c3c(C)cc4c(C(C)C)c(O)c(O)c(/C=N/NCCOCCOCCOC)c4c3O)c(O)c12
2.60

# get_value(readout='log10(MIC)', item= O=C(O)c1cn(C2CC2)c2cc(N3CCNCC3)c(F)cc2c1=O )
-0.30

// query log10(MIC) value for entry COCCN/N=C/c1c(O)c(O)c(C(C)C)c2cc(C)c(-c3c(C)cc4c(C(C)C)c(O)c(O)c(/C=N/NCCOC)c4c3O)c(O)c12
1.70

Need log10(MIC) of Cc1cc2c(c(O)c1-c1c(C)cc3c(c1O)/C(=C/NCC1COCCOCCOCCOCCOCCO1)C(=O)C(O)=C3C(C)C)/C(=C/NCC1COCCOCCOCCOCCOCCO1)C(=O)C(O)=C2C(C)C (stereo not drawn) , thanks.
2.30

Requested read-out: log10(MIC). Entry: COCCOCCN/N=C/c1c(O)c(O)c(C(C)C)c2cc(C)c(-c3c(C)cc4c(C(C)C)c(O)c(O)c(/C=N/NCCOCCOC)c4c3O)c(O)c12
2.60

# lookup: log10(MIC) of Cc1cc2c(C(C)C)c(O)c(O)c(/C=N/N3CCN(CCO)CC3)c2c(O)c1-c1c(C)cc2c(C(C)C)c(O)c(O)c(/C=N/N3CCN(CCO)CC3)c2c1O
1.70

Would you kindly share the measured log10(MIC) for Cc1cc2c(c(O)c1-c1c(C)cc3c(c1O)/C(=C/NCCC(=O)N[C@@H](Cc1c[nH]cn1)C(=O)O)C(=O)C(O)=C3C(C)C)/C(=C/NCCC(=O)N[C@@H](Cc1c[nH]cn1)C(=O)O)C(=O)C(O)=C2C(C)C ?
2.00

What log10(MIC) value was documented for this compound, Cc1cc2c(C(C)C)c(O)c(O)c(C=O)c2c(O)c1-c1c(C)cc2c(C(C)C)c(O)c(O)c(C=O)c2c1O ?
1.70

# lookup: log10(MIC) of Cc1cc2c(c(O)c1-c1c(C)cc3c(c1O)/C(=C/N)C(=O)C(O)=C3C(C)C)/C(=C/N)C(=O)C(O)=C2C(C)C
2.00

----------
The compounds listed here are annotated with their zone of inhibition at 400 µg/disc.
- Tested on: Bacillus cereus
- procedure-summary: Antimicrobial activity against Bacillus cereus ATCC 11778 at 400 ug after 18 hrs by disk diffusion method
- Type: functional
- test-parameters: ATCC 11778, 18 h, read-out: DIZ
The reply should be a number in mm, with the unit left off.

# example entries with known answers
compound	measurement-unit	recorded-number
COCCN/N=C/c1c(O)c(O)c(C(C)C)c2cc(C)c(-c3c(C)cc4c(C(C)C)c(O)c(O)c(/C=N/NCCOC)c4c3O)c(O)c12	mm	13
Cc1cc2c(C(C)C)c(O)c(O)c(C=O)c2c(O)c1-c1c(C)cc2c(C(C)C)c(O)c(O)c(C=O)c2c1O	mm	15
Cc1cc2c(c(O)c1-c1c(C)cc3c(c1O)/C(=C/NCC1COCCOCCOCCOCCOCCO1)C(=O)C(O)=C3C(C)C)/C(=C/NCC1COCCOCCOCCOCCOCCO1)C(=O)C(O)=C2C(C)C (configuration not stated)	mm	11
COCCOCCN/N=C/c1c(O)c(O)c(C(C)C)c2cc(C)c(-c3c(C)cc4c(C(C)C)c(O)c(O)c(/C=N/NCCOCCOC)c4c3O)c(O)c12	mm	11
COCCOCCOCCN/N=C/c1c(O)c(O)c(C(C)C)c2cc(C)c(-c3c(C)cc4c(C(C)C)c(O)c(O)c(/C=N/NCCOCCOCCOC)c4c3O)c(O)c12	mm	12
COc1ccc2[nH]cc(CCN/C=C3\C(=O)C(O)=C(C(C)C)c4cc(C)c(-c5c(C)cc6c(c5O)/C(=C/NCCc5c[nH]c7ccc(OC)cc57)C(=O)C(O)=C6C(C)C)c(O)c43)c2c1	mm	15
Cc1cc2c(C(C)C)c(O)c(O)c(/C=N/N3CCN(CCO)CC3)c2c(O)c1-c1c(C)cc2c(C(C)C)c(O)c(O)c(/C=N/N3CCN(CCO)CC3)c2c1O	mm	12
COCCOC(CN/N=C/c1c(O)c(O)c(C(C)C)c2cc(C)c(-c3c(C)cc4c(C(C)C)c(O)c(O)c(/C=N/NCC(OCCOC)OCCOC)c4c3O)c(O)c12)OCCOC	mm	12
Cc1cc2c(c(O)c1-c1c(C)cc3c(c1O)/C(=C/NCCc1cccs1)C(=O)C(O)=C3C(C)C)/C(=C/NCCc1cccs1)C(=O)C(O)=C2C(C)C	mm	15
CCCCOCCOCCN/C=C1\C(=O)C(O)=C(C(C)C)c2cc(C)c(-c3c(C)cc4c(c3O)/C(=C/NCCOCCOCCCC)C(=O)C(O)=C4C(C)C)c(O)c21	mm	12

Request the reported zone of inhibition at 400 µg/disc associated with Cc1cc2c(c(O)c1-c1c(C)cc3c(c1O)/C(=C/NCCC(=O)N[C@@H](Cc1c[nH]cn1)C(=O)O)C(=O)C(O)=C3C(C)C)/C(=C/NCCC(=O)N[C@@H](Cc1c[nH]cn1)C(=O)O)C(=O)C(O)=C2C(C)C
14

Give the measured zone of inhibition at 400 µg/disc of Cc1cc2c(c(O)c1-c1c(C)cc3c(c1O)/C(=C/N)C(=O)C(O)=C3C(C)C)/C(=C/N)C(=O)C(O)=C2C(C)C .
11

----------
Measured MIC accompanies every entry in the list below.
- Test system: Enterococcus hirae
- procedure-summary: Antimicrobial activity against Enterococcus hirae ATCC 10541 after 18 hrs by twofold dilution technique
- Assay type: functional
- test-parameters: ATCC 10541, 18 h
Please state the figure in µg/mL; there is no need to write the unit.

Record excerpt, results attached:
query-smiles	system-name	measurement-unit	MIC
CCCCOCCOCCN/C=C1\C(=O)C(O)=C(C(C)C)c2cc(C)c(-c3c(C)cc4c(c3O)/C(=C/NCCOCCOCCCC)C(=O)C(O)=C4C(C)C)c(O)c21	Enterococcus hirae	µg/mL	100
Cc1cc2c(c(O)c1-c1c(C)cc3c(c1O)/C(=C/N)C(=O)C(O)=C3C(C)C)/C(=C/N)C(=O)C(O)=C2C(C)C	Enterococcus hirae	µg/mL	100

What does the data say about its MIC? Entry: COCCOCCOCCN/N=C/c1c(O)c(O)c(C(C)C)c2cc(C)c(-c3c(C)cc4c(C(C)C)c(O)c(O)c(/C=N/NCCOCCOCCOC)c4c3O)c(O)c12
200

----------
Each record here notes measured MIC.
- Test system: Staphylococcus aureus
- procedure-summary: Antimicrobial activity against methicillin-resistant Staphylococcus aureus 141/6 by twofold dilution technique
- Assay type: functional
Respond with a number, then the unit of measure.

compound	MIC
Cc1cc2c(C(C)C)c(O)c(O)c(/C=N/N3CCN(CCO)CC3)c2c(O)c1-c1c(C)cc2c(C(C)C)c(O)c(O)c(/C=N/N3CCN(CCO)CC3)c2c1O	50 µg/mL
Cc1cc2c(c(O)c1-c1c(C)cc3c(c1O)/C(=C/NCCC(=O)N[C@@H](Cc1c[nH]cn1)C(=O)O)C(=O)C(O)=C3C(C)C)/C(=C/NCCC(=O)N[C@@H](Cc1c[nH]cn1)C(=O)O)C(=O)C(O)=C2C(C)C	100 µg/mL

Would you kindly share the measured MIC for Cc1cc2c(C(C)C)c(O)c(O)c(C=O)c2c(O)c1-c1c(C)cc2c(C(C)C)c(O)c(O)c(C=O)c2c1O [GOSSYPOL] ?
50 µg/mL

Requested read-out: MIC. Entry: CCCCOCCOCCN/C=C1\C(=O)C(O)=C(C(C)C)c2cc(C)c(-c3c(C)cc4c(c3O)/C(=C/NCCOCCOCCCC)C(=O)C(O)=C4C(C)C)c(O)c21
200 µg/mL

For the compound shown here, COCCN/N=C/c1c(O)c(O)c(C(C)C)c2cc(C)c(-c3c(C)cc4c(C(C)C)c(O)c(O)c(/C=N/NCCOC)c4c3O)c(O)c12 , give the reported MIC.
100 µg/mL

What MIC value was documented for this compound, COc1ccc2[nH]cc(CCN/C=C3\C(=O)C(O)=C(C(C)C)c4cc(C)c(-c5c(C)cc6c(c5O)/C(=C/NCCc5c[nH]c7ccc(OC)cc57)C(=O)C(O)=C6C(C)C)c(O)c43)c2c1 ?
100 µg/mL
